Listed here are binders together with their documented koff.
tested-on: T1, biotinylated CRH (human and mouse, not fully specified; biotinylated, position not stated)
T1 construct: also called Biotin-CRH; biotin-labeled CRH
T1 peptide: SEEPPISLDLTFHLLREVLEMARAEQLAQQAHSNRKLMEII
run-description: Octet BLI, biotinylated CRH on SA sensor
reported-endpoint: koff

1. PR302334-11 (antibody, human IgG1, kappa, V domains shown, Humanized variant of PR302334) VH: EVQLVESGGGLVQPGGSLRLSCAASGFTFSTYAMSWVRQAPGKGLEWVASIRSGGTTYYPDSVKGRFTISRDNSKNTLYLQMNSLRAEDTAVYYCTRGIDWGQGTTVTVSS VL: DIQMTQSSLSASVSLGDRVTITCKASQSVNNDVAWYQQKPGKAPRLLIYYASNRYTGVPSRFSGSGSGTDFTFTISSLQPEDIATYYCQQDYSSWTFGGGTKVEIKR | < 1e-07 s⁻¹
2. PR006150 (antibody, human IgG1, kappa, V domains shown, PTM-removal variant of PR004290) VH: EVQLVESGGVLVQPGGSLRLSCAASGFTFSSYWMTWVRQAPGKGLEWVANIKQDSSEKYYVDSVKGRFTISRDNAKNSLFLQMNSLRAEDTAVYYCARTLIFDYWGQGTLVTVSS VL: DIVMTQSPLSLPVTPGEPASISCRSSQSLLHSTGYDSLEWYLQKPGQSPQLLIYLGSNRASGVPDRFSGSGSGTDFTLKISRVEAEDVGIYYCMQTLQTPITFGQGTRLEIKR | 5.66e-05 s⁻¹
3. PR302334-10 (antibody, human IgG1, kappa, V domains shown, Humanized variant of PR302334) VH: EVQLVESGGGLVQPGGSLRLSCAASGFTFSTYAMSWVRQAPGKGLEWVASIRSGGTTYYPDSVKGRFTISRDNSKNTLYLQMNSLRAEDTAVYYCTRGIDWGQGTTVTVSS VL: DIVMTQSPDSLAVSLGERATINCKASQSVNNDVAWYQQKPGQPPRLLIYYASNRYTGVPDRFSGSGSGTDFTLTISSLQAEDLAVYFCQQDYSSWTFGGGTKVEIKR | < 1e-07 s⁻¹

meta.source: patent US20260042834A1
